The entries below come with measured EC50 values attached.
tgt: Stimulator of interferon genes protein (Homo sapiens)
Sequence (Q86WV6 whole entry): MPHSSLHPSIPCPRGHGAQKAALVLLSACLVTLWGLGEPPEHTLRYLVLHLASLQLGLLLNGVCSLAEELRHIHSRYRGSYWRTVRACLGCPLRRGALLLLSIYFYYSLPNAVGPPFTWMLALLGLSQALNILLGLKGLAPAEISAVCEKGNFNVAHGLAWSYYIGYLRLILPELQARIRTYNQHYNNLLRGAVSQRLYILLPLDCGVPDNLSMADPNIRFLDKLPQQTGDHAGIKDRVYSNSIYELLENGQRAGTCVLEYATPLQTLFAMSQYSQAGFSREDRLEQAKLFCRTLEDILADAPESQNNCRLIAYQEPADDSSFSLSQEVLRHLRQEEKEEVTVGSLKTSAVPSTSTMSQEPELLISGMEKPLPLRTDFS
assayOverview: Agonist activity at STING in human PBMC cells assessed as increase in […] by electrochemiluminescence assay
Format: cell-based

Take a look at these entries with their results.
CCn1nc(C)cc1C(=O)/N=c1\n(C)c2ccccc2n1C/C=C/Cn1/c(=N/C(=O)c2cc(C)nn2CC)n(C)c2cccc(CN3CCCCC3)c21 : < 1 nM
CCn1nc(C)cc1C(=O)/N=c1\n(C)c2ccccc2n1C/C=C/Cn1/c(=N/C(=O)c2cc(C)nn2CC)n(C)c2cccc(CN3CCCCCC3)c21 : < 1 nM
CCn1nc(C)cc1C(=O)/N=c1\n(C)c2ccccc2n1C/C=C/Cn1/c(=N/C(=O)c2cc(C)nn2CC)n(C)c2cccc(CN3CCOCC3)c21 : < 1 nM

Consider the compound `CCn1nc(C)cc1C(=O)/N=c1\n(C)c2ccccc2n1C/C=C/Cn1/c(=N/C(=O)c2cc(C)nn2CC)n(C)c2c(CO)cccc21` and give its recorded EC50.
< 1 nM

Give the value of EC50 reported for the following: CCn1nc(C)cc1C(=O)/N=c1\n(C)c2ccccc2n1C/C=C/Cn1/c(=N/C(=O)c2cc(C)nn2CC)n(C)c2cccc(C(O)CO)c21 (stereo unspecified)
1 nM

Give me measured EC50, please, for this compound: `CCn1nc(C)cc1C(=O)/N=c1\n(C)c2cccc(OC)c2n1C/C=C/Cn1/c(=N/C(=O)c2cc(C)nn2CC)n(C)c2cccc(OCCCO)c21`
< 1 nM
